# TEST SUMMARY: Dog GI S9 stability
# CONDITION NOTES: intestinal S9

| MOL | half-life at 2 μM (h) |
| --- | --- |
| Cn1ccc2c([C@@H](c3cn(C45CC(C4)C5)nn3)N(C(=O)OCOP(=O)(O)O)c3cc(Cl)c4ncc(C#N)c(NCC(C)(C)C)c4c3)cccc2c1=O | 0.433 |
| C[C@H](N)C(=O)OCOC(=O)N(c1cc(Cl)c2ncc(C#N)c(NCC(C)(C)C)c2c1)[C@H](c1cn(C23CC(C2)C3)nn1)c1cccc2c(=O)n(C)ccc12 | 0.0167 |
| COC[C@@H](C)OC(=O)N(c1cc(C#N)c2ncc(C#N)c(N[C@H](C)C(C)(C)C)c2c1)[C@H](c1cn(C23CC(C2)C3)nn1)c1ccc(F)nc1C | 8.8 |
| Cc1nc(F)ccc1[C@@H](c1cn(C23CC(C2)C3)nn1)N(C(=O)C(=O)O)c1cc(C#N)c2ncc(C#N)c(N[C@H](C)C(C)(C)C)c2c1 | 13.2 |
